ASSAY OVERVIEW: MRT in Wistar Han rat at 100 mg/kg, po by LC/MS method
Type: ADME, organism-based
CONDITIONS: in vivo
MEASURED PROPERTY: MRT (h)
Field: numeric (h). Do not append units.

Observe how each entry below is paired with its result.
# MOLECULE, MRT [h]
measured = [
    ("COC(=O)N[C@H](C(=O)N1CCC[C@H]1c1ncc(-c2cc(F)c3c(c2)O[C@@H](c2ccc(C4CC4)s2)n2c-3cc3cc(-c4cnc([C@@H]5CCCN5C(=O)[C@@H](NC(=O)OC)[C@@H]5CCOC(C)(C)C5)[nH]4)ccc32)[nH]1)C(C)C", 12.4),
    ("COC(=O)N[C@H](C(=O)N1CCC[C@H]1c1ncc(-c2cc(F)c3c(c2)O[C@@H](c2ccc(C4CC4)s2)n2c-3cc3cc(-c4cnc([C@@H]5CCCN5C(=O)[C@@H](NC(=O)OC)C5C[C@@H](C)O[C@H](C)C5)[nH]4)ccc32)[nH]1)C(C)C (some centres undefined)", 7.6),
    ("COC(=O)N[C@H](C(=O)N1CCC[C@H]1c1ncc(-c2cc(F)c3c(c2)O[C@@H](c2ccc(C4CC4)s2)n2c-3cc3cc(-c4cnc([C@@H]5CCCN5C(=O)[C@@H](NC(=O)OC)C5CCOCC5)[nH]4)ccc32)[nH]1)C(C)C", 8.3),
]

Please look at the following molecule next.
Short answer for COC(=O)N[C@H](C(=O)N1CCC[C@H]1c1ncc(-c2cc(F)c3c(c2)O[C@@H](c2ccc(C4CC4)s2)n2c-3cc3cc(-c4cnc([C@@H]5CCCN5C(=O)[C@@H](NC(=O)OC)C5C[C@@H](C)O[C@@H](C)C5)[nH]4)ccc32)[nH]1)C(C)C (some centres undefined) : MRT was 17

###

# reported EC90; entries follow
EXPERIMENTAL TARGET: Nonstructural protein 5A (Hepatitis C virus)
Sequence (whole entry): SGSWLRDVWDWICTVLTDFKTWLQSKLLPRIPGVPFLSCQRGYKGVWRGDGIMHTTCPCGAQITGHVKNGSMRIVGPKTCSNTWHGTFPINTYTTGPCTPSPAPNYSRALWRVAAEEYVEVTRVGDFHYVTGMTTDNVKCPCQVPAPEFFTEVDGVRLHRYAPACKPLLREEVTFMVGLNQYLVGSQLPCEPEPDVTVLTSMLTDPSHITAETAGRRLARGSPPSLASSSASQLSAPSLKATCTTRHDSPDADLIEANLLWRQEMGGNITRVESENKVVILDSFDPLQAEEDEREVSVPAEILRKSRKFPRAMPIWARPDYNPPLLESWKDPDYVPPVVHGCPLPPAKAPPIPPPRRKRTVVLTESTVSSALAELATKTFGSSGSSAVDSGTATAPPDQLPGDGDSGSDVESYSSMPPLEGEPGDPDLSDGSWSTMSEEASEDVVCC
ASSAY OVERVIEW: Inhibition of NS5A in HCV genotype 4a infected in HuH7 replicon cells assessed as decrease in viral replication after 3 days by RT-PCR method
Format: cell-based
CONDITIONS: Hepatitis C virus subtype 4a
Field: numeric (pM). Do not append units.

# COMPOUND, UNIT DESCRIPTOR, EC90
measured = [
    ("COC(=O)N[C@H](C(=O)N1CCC[C@H]1c1ncc(-c2cc(F)c3c(c2)O[C@@H](c2ccc4c(c2)CCCO4)n2c-3cc3cc(-c4cnc([C@@H]5CCCN5C(=O)[C@@H](NC(=O)OC)C5CCOCC5)[nH]4)ccc32)[nH]1)C(C)C", "pM", 6),
]

EC90 on Nonstructural protein 5A (Hepatitis C virus) for CCc1ncc([C@@H]2Oc3cc(-c4cnc([C@@H]5CCCN5C(=O)[C@@H](NC(=O)OC)C(C)C)[nH]4)cc(F)c3-c3cc4cc(-c5cnc([C@@H]6CCCN6C(=O)[C@@H](NC(=O)OC)[C@@H]6CCOC(C)(C)C6)[nH]5)ccc4n32)s1 is 4

EC90 on Nonstructural protein 5A (Hepatitis C virus) for COC(=O)N[C@H](C(=O)N1CCC[C@H]1c1ncc(-c2cc(F)c3c(c2)O[C@@H](c2ccc(C4CC4)s2)n2c-3cc3cc(-c4cnc([C@@H]5CCCN5C(=O)[C@@H](NC(=O)OC)C5CCO[C@@H](C)C5)[nH]4)ccc32)[nH]1)C(C)C (some centres undefined) is 7

EC90 on Nonstructural protein 5A (Hepatitis C virus) for COC(=O)N[C@H](C(=O)N1CCC[C@H]1c1ncc(-c2cc(F)c3c(c2)O[C@@H](c2ccc(C4CC4)s2)n2c-3cc3cc(-c4cnc([C@@H]5CCCN5C(=O)[C@@H](NC(=O)OC)[C@@H]5CCOC(C)(C)C5)[nH]4)ccc32)[nH]1)C(C)C is 6

Values were extracted from ChEMBL document CHEMBL4177770.
